- ASSAYED_TARGET: T1, IgG-Fc (UniProt P01857-1 108-330 = IgG part, limits assumed)
- T1 construct: domain: IgG-Fc; also called biotinylated-IgG-Fc; biotin-IgG-Fc
- ASSAY_REMARKS: phage ELISA, M13/gIII display, ALA scan
Labelling: EC50 reported below 40 nM becomes condition met; at or above becomes condition not met.

- BINDER: "AEADCAWHLGELVWCTKVEE (M13/gIII phage display; ALA Scan on Phage) [phage clone AEADCAWHLGELVWCTKVEE]"
  GROUP_LABEL: "condition met"
- BINDER: "WEPDCAWHLGELVWCTKVEE (M13/gIII phage display; ALA Scan on Phage) [phage clone WEPDCAWHLGELVWCTKVEE]"
  GROUP_LABEL: "condition met"
- BINDER: "WEADCAWHLGALVWCTKVEE (M13/gIII phage display; ALA Scan on Phage) [phage clone WEADCAWHLGALVWCTKVEE]"
  GROUP_LABEL: "condition met"
- BINDER: "WEADCAWHLAELVWCTKVEE (M13/gIII phage display; ALA Scan on Phage) [phage clone WEADCAWHLAELVWCTKVEE]"
  GROUP_LABEL: "condition met"
- BINDER: "WEADCAWHLGELAWCTKVEE (M13/gIII phage display; ALA Scan on Phage) [phage clone WEADCAWHLGELAWCTKVEE]"
  GROUP_LABEL: "condition not met"
- BINDER: "WEAACAWHLGELVWCTKVEE (M13/gIII phage display; ALA Scan on Phage) [phage clone WEAACAWHLGELVWCTKVEE]"
  GROUP_LABEL: "condition not met"
- BINDER: "WEADCAWALGELVWCTKVEE (M13/gIII phage display; ALA Scan on Phage) [phage clone WEADCAWALGELVWCTKVEE]"
  GROUP_LABEL: "condition not met"
